system: NS3 protease domain from GT 1a HCV-infected subjects in replicon shuttle vector; assay: Replicon transient transfection EC50, NS3 protease domain from subjects cloned into shuttle vector, GT 1a; assay type: cell-based; conditions: Hepatitis C virus, GT1A, 96 h, read-out: EC50 Day 4, Subject P, GT 1a, 50/100 mg dose group, Day 4 sample
Measured endpoint: pEC50
In textbook form, pEC50 equals minus log to base ten of the concentration in mol/L.

Query (compound): Cc1cnc(C(=O)N[C@H]2CCCCC/C=C\[C@@H]3C[C@@]3(C(=O)NS(=O)(=O)C3CC3)NC(=O)[C@@H]3C[C@@H](Oc4nc5ccccc5c5ccccc45)CN3C2=O)cn1 [Compound I] ; field requested: pEC50 8.05

###

test system: NS3 protease domain from GT 1a HCV-infected subjects in replicon shuttle vector; test: Replicon transient transfection EC50, NS3 protease domain from subjects cloned into shuttle vector, GT 1a; type: cell-based; conditions: Hepatitis C virus, GT1A, 24 h, read-out: EC50 Day 1, Subject B, GT 1a, 200/100 mg dose group, Day 1 (baseline) sample
Measured endpoint: EC50 (nM)
Reply numerically in nM, unit not repeated.

Query (compound): Cc1cnc(C(=O)N[C@H]2CCCCC/C=C\[C@@H]3C[C@@]3(C(=O)NS(=O)(=O)C3CC3)NC(=O)[C@@H]3C[C@@H](Oc4nc5ccccc5c5ccccc45)CN3C2=O)cn1 ; field requested: EC50 1.36

###

test system: NS3 protease domain from GT 1a HCV-infected subjects in replicon shuttle vector; experiment: Replicon transient transfection EC50, NS3 protease domain from subjects cloned into shuttle vector, GT 1a; format: cell-based; conditions: Hepatitis C virus, GT1A, 96 h, read-out: EC50 Day 4, Subject A, GT 1a, 200/100 mg dose group, Day 4 sample
Measured endpoint: EC50

Query (compound): Cc1cnc(C(=O)N[C@H]2CCCCC/C=C\[C@@H]3C[C@@]3(C(=O)NS(=O)(=O)C3CC3)NC(=O)[C@@H]3C[C@@H](Oc4nc5ccccc5c5ccccc45)CN3C2=O)cn1 ; field requested: EC50 1.14 nM

###

tested on: NS3 protease domain from GT 1b HCV-infected subjects in replicon shuttle vector; experiment: Replicon transient transfection EC50, NS3 protease domain from subjects cloned into shuttle vector, GT 1b; format: cell-based; details: Hepatitis C virus, GT1B, 24 h, read-out: EC50 Day 1, Subject K, GT 1b, 100/100 mg dose group, Day 1 (baseline) sample
Measured endpoint: pEC50
In textbook form, pEC50 equals minus log to base ten of the concentration in mol/L.

So what pEC50 did Cc1cnc(C(=O)N[C@H]2CCCCC/C=C\[C@@H]3C[C@@]3(C(=O)NS(=O)(=O)C3CC3)NC(=O)[C@@H]3C[C@@H](Oc4nc5ccccc5c5ccccc45)CN3C2=O)cn1 [Compound I] get with NS3 protease domain from GT 1b HCV-infected subjects in replicon shuttle vector? 10.15

###

tested on: GT 1a replicon R155G; assay: HCV subgenomic replicon system, GT 1a R155G; assay type: cell-based; conditions: Hepatitis C virus, GT1A
Measured endpoint: pEC50
In textbook form, pEC50 equals minus log to base ten of the concentration in mol/L.

Query (compound): Cc1cnc(C(=O)N[C@H]2CCCCC/C=C\[C@@H]3C[C@@]3(C(=O)NS(=O)(=O)C3CC3)NC(=O)[C@@H]3C[C@@H](Oc4nc5ccccc5c5ccccc45)CN3C2=O)cn1 ; field requested: pEC50 7.72
